system: P. aeruginosa ATCC 27853; experiment: MIC determination; format: cell-based; settings: Pseudomonas aeruginosa, ATCC27853; P. aeruginosa ATCC 27853; read-out: MIC
# Lookup of reported MIC keyed by entry

Sample answers from the record:
CSC1O[C@H]([C@H](NC(=O)[C@H]2NC[C@@H]3C[C@@H](c4ccc(F)cc4)CCO[C@H]32)[C@H](C)Cl)C(O)[C@@H](O)[C@H]1O (some centres unmarked) [FSA-507061] = > 64 µg/mL
CSC1O[C@H]([C@H](NC(=O)[C@@H]2[C@@H]3OCCCC[C@H]3CN2C)[C@H](C)Cl)C(O)C(O)[C@H]1O (some centres unmarked) [FSA-24040] = > 32 µg/mL

I have this molecule here, CSC1O[C@H]([C@H](NC(=O)[C@H]2NC[C@@H]3CCCO[C@H]32)[C@H](C)Cl)C(O)[C@@H](O)[C@H]1O (some centres unmarked) [FSA-24041] , and I need its recorded MIC.
> 32 µg/mL

Also CSC1O[C@H]([C@H](NC(=O)[C@H]2NC[C@@H]3CC(F)(F)CCO[C@H]32)[C@H](C)Cl)C(O)[C@@H](O)[C@H]1O (some centres unmarked) [FSA-24036] , if possible.
> 64 µg/mL

Also CSC1O[C@H]([C@H](NC(=O)[C@H]2NC[C@@H]3CCCCO[C@H]32)[C@H](C)Cl)C(O)[C@@H](O)[C@H]1O (some centres unmarked) [FSA-22091] , if possible.
> 32 µg/mL

* * *

Consider the following MIC values measured on S. pneumoniae MMX 3031 cMefA.

Sample answers from the record:
CSC1O[C@H]([C@H](NC(=O)[C@H]2NC[C@@H]3C[C@@H](CCc4ccccc4)CCO[C@H]32)[C@H](C)Cl)C(O)[C@@H](O)[C@H]1O (stereo partly drawn) = ≤ 0.06 µg/mL
CSC1O[C@H]([C@H](NC(=O)[C@H]2NC[C@@H]3C[C@H]4C[C@H]4CO[C@H]32)[C@H](C)Cl)C(O)C(O)[C@H]1O (stereo in doubt) = 0.12 µg/mL

Now consider a different compound.
I have this compound here, CSC1O[C@H]([C@H](NC(=O)[C@H]2NC[C@@H]3CC(c4ccccc4)=CCO[C@H]32)[C@H](C)Cl)C(O)[C@@H](O)[C@H]1O (stereo partly drawn) , and I need its recorded MIC.
0.12 µg/mL

* * *

# Lookup of reported MIC keyed by entry
test system: S. pneumoniae ATCC 49619; experiment: MIC determination; assay type: cell-based; details: Streptococcus pneumoniae, ATCC49619; S. pneumoniae ATCC 49619; read-out: MIC

Sample answers from the record:
CSC1O[C@H]([C@H](NC(=O)[C@H]2NC[C@H]3CC=CCO[C@H]32)[C@H](C)Cl)C(O)[C@@H](O)[C@H]1O (stereo partly drawn) [FSA-507051] = 1 µg/mL
CSC1O[C@H]([C@H](NC(=O)[C@H]2NC[C@@H]3C[C@@H](c4ccccc4F)CCO[C@H]32)[C@H](C)Cl)C(O)[C@@H](O)[C@H]1O (stereo partly drawn) [FSA-511100] = 0.125 µg/mL
COc1ccc([C@@H]2CCO[C@@H]3[C@H](CN[C@@H]3C(=O)N[C@H]([C@H](C)Cl)[C@H]3OC(SC)[C@H](O)[C@H](O)C3O)C2)cc1 (stereo partly drawn) [FSA-512080c] = ≤ 0.06 µg/mL
CCOC(=O)CCN1C[C@@H]2CC=CCO[C@H]2[C@H]1C(=O)N[C@H]([C@H](C)Sc1ccc(-c2cccnc2)cc1)[C@H]1OC(SC)[C@H](O)[C@H](O)C1O (stereo partly drawn) [FSA-214009b] = 32 µg/mL
CSC1O[C@H]([C@H](NC(=O)[C@H]2NC[C@@H]3C[C@@H](c4ccc(C#N)cc4)CCO[C@H]32)[C@H](C)Cl)C(O)[C@@H](O)[C@H]1O (stereo partly drawn) [FSA-511046] = ≤ 0.06 µg/mL
CSC1O[C@H]([C@H](NC(=O)[C@H]2NC[C@@H]3C[C@H](c4ccc(C#N)cc4)CCO[C@H]32)[C@H](C)Cl)C(O)[C@@H](O)[C@H]1O (stereo partly drawn) [FSA-512081b] = ≤ 0.06 µg/mL
CSC1O[C@H]([C@H](NC(=O)[C@@H]2[C@@H]3OCC=CC[C@H]3CN2C)[C@H](C)Sc2ccc(-c3cncnc3)cc2)C(O)[C@@H](O)[C@H]1O (stereo partly drawn) [FSA-212034] = ≤ 0.06 µg/mL
CSC1O[C@H]([C@H](NC(=O)[C@H]2NC[C@@H]3CC=CCO[C@H]32)[C@H](C)Cl)C(O)[C@@H](O)[C@H]1O (stereo partly drawn) [FSA-24035] = ≤ 0.06 µg/mL
CSC1O[C@H]([C@H](NC(=O)[C@H]2NC[C@@H]3C=C(C#Cc4ccccc4)CCO[C@@H]23)[C@H](C)Cl)C(O)[C@@H](O)[C@H]1O (stereo partly drawn) [FSA-510002] = 0.25 µg/mL
CSC1O[C@H]([C@H](NC(=O)[C@H]2NC[C@@H]3C=C(c4cc(F)cc(F)c4)CCO[C@@H]23)[C@H](C)Cl)C(O)[C@@H](O)[C@H]1O (stereo partly drawn) [FSA-511074] = 0.25 µg/mL

What measured MIC is associated with CSC1O[C@H]([C@H](NC(=O)[C@H]2NC[C@@H]3C[C@@H](c4cc(F)cc(F)c4)CCO[C@H]32)[C@H](C)Cl)C(O)[C@@H](O)[C@H]1O (stereo partly drawn) [FSA-511080] on S. pneumoniae ATCC 49619?
≤ 0.06 µg/mL

Also CSC1O[C@H]([C@H](NC(=O)[C@H]2NC[C@@H]3C=C(c4ccccc4)CCO[C@@H]23)[C@H](C)Cl)C(O)[C@@H](O)[C@H]1O (stereo partly drawn) [FSA-507031] , if possible.
32 µg/mL

* * *

# Lookup of reported MIC keyed by entry
tested on: E. coli ATCC 25922; assay: MIC determination; type: cell-based; details: Escherichia coli, ATCC25922, E. coli ATCC 25922; read-out: MIC

Sample answers from the record:
CSC1O[C@H]([C@H](NC(=O)[C@H]2NC[C@@H]3C[C@@H](c4cccc(F)c4)CCO[C@H]32)[C@H](C)Cl)C(O)[C@@H](O)[C@H]1O (stereo partly drawn) [FSA-511077] = > 64 µg/mL
CSC1O[C@H]([C@H](NC(=O)[C@H]2NC[C@@H]3C[C@@H](c4ccccc4F)CCO[C@H]32)[C@H](C)Cl)C(O)[C@@H](O)[C@H]1O (stereo partly drawn) [FSA-511100] = > 64 µg/mL
CCOC(=O)CCN1C[C@@H]2CC=CCO[C@H]2[C@H]1C(=O)N[C@H]([C@H](C)Sc1ccc(-c2cccnc2)cc1)[C@H]1OC(SC)[C@H](O)[C@H](O)C1O (stereo partly drawn) [FSA-214009b] = > 64 µg/mL
CSC1O[C@H]([C@H](NC(=O)[C@H]2NC[C@@H]3CCCCO[C@H]32)[C@H](C)Cl)C(O)[C@@H](O)[C@H]1O (stereo partly drawn) [FSA-22091] = 32 µg/mL

I have this compound here, COc1ccc(C2=CCO[C@@H]3[C@H](CN[C@@H]3C(=O)N[C@H]([C@H](C)Cl)[C@H]3OC(SC)[C@H](O)[C@H](O)C3O)C2)cc1 (stereo partly drawn) [FSA-511020] , and I need its recorded MIC.
> 64 µg/mL

Also CSC1O[C@H]([C@H](NC(=O)[C@H]2NC[C@@H]3C[C@@H](c4ccc(C#N)cc4)CCO[C@H]32)[C@H](C)Cl)C(O)[C@@H](O)[C@H]1O (stereo partly drawn) [FSA-511046] , if possible.
> 64 µg/mL

* * *

tested on: S. pneumoniae ATCC 49619; assay: MIC determination; assay type: cell-based; details: Streptococcus pneumoniae, ATCC49619; S. pneumoniae ATCC 49619; read-out: MIC
# Lookup of reported MIC keyed by entry
Give the quantity in µg/mL, number only.

Sample answers from the record:
CSC1O[C@H]([C@H](NC(=O)[C@H]2NC[C@@H]3C[C@@H](C4CCNCC4)CCO[C@H]32)[C@H](C)Cl)C(O)[C@@H](O)[C@H]1O (stereo partly drawn) [FSA-512011] = 1
CSC1O[C@H]([C@H](NC(=O)[C@H]2NC[C@@H]3C=C(c4cccc(F)c4)CCO[C@@H]23)[C@H](C)Cl)C(O)[C@@H](O)[C@H]1O (stereo partly drawn) [FSA-511071] = 0.25
CSC1O[C@H]([C@H](NC(=O)[C@H]2NC[C@@H]3CCCCO[C@@H]32)[C@H](C)Cl)C(O)[C@@H](O)[C@H]1O (stereo partly drawn) [FSA-504062] = 0.25

I have this compound here, CSC1O[C@H]([C@H](NC(=O)[C@H]2NC[C@@H]3CC(c4cccc5cnccc45)=CCO[C@H]32)[C@H](C)Cl)C(O)[C@@H](O)[C@H]1O (stereo partly drawn) [FSA-510006] , and I need its recorded MIC.
1

Also CSC1O[C@H]([C@H](NC(=O)[C@H]2NC[C@@H]3CC(c4ccc(C)cc4)=CCO[C@H]32)[C@H](C)Cl)C(O)[C@@H](O)[C@H]1O (stereo partly drawn) [FSA-511019] , if possible.
0.25

Also CSC1O[C@H]([C@H](NC(=O)[C@H]2NC[C@@H]3C=C(c4ccc(F)cc4)CCO[C@@H]23)[C@H](C)Cl)C(O)[C@@H](O)[C@H]1O (stereo partly drawn) [FSA-507052] , if possible.
0.25

Also Cc1ccc(S(=O)(=O)OCC2O[C@H]([C@H](NC(=O)[C@H]3NC[C@@H]4CC=CCO[C@H]43)[C@@H](C)O)C(O)[C@@H](O)[C@H]2O)cc1 (stereo partly drawn) [FSA-211030] , if possible.
32

The measurements presented in this section are drawn from patent US11767341B2.
